Just for reference, PubChem BioAssay (NCI) is where these values come from.

Test system: K-562 leukemia
Assay: NCI tumour cell line growth inhibition, 48 h; in the data active means GI50 below about 0.43 µM; inactive means the rest
Response enum: active, inactive

Which outcome did this test record for the compound "COc1ccc(-c2c(-c3cc(OC)c(OC)c(OC)c3)noc2N)cc1" ? active

Give the logged outcome of this assay for the following compound: "C[n+]1ccc(-c2c3nc(c(-c4cc[n+](C)cc4)c4ccc([n-]4)c(-c4cc[n+](C)cc4)c4nc(c(-c5cc[n+](C)cc5)c5ccc2[n-]5)C=C4)C=C3)cc1.[I-].[Zn+2]" inactive

Hi, do you know how CCc1ccc2c(c1)N(CCO)C1=C(C(=O)OC1)C2c1cccc(Cl)c1 (stereo not drawn) came out in this test? inactive

What outcome does the record of this test show for "C/C(=C(\c1ccc(OCCN2CCCCCC2)cc1)c1ccc(OC(=O)Cc2ccccc2)cc1)c1ccc(Cl)cc1" ? inactive

Record lookup: outcome of this test for "COc1ccc(-c2cc(-c3ccc(O)cc3)nc3n[nH]c(N)c23)cc1" ? inactive

I'd appreciate the recorded outcome for C=C(C)[C@@H]1CC[C@]2(CO)CC[C@]3(C)[C@H](CC[C@@H]4[C@@]5(C)CCC(NCCc6ccc(O)cc6)C(C)(C)[C@@H]5CC[C@]43C)[C@@H]12 (stereo partly drawn) from this test. active

Given "O=C(NCc1ccco1)c1ccc(NC2=C(Cl)C(=O)N(Cc3ccccc3)C2=O)cc1" , state the outcome it received in this test. inactive

// return assay outcome for "CC/C(=C(/c1ccc(O)cc1)c1ccc(OCCN2CCCCC2)cc1)c1ccc(OC)cc1" active

So what was the verdict on "N#CC1=C(N)NC(=S)NC12Nc1ccccc1N2" in this test? inactive

// return assay outcome for "C[C@H](CCCNCCCNCCCN)[C@H]1CC[C@H]2[C@@H]3[C@H](OCCCN)C[C@H]4C[C@H](OCCCN)CC[C@]4(C)[C@H]3C[C@H](OCCCN)[C@]12C" inactive

Hi, do you know how "CCCCCCc1nc2nc(Cl)c(Cl)nc2[nH]1" came out in this test? inactive

Any idea what this test logged for "CCC[CH2][Sn]1([CH2]CCC)[O]C(=O)c2ccc(C)cc2[O]1" ? active

Outcome? "COc1cc(OC)c(NC(=O)c2cc3ccccc3cc2O)cc1Cl" inactive

###

Tested on: HT29 colon
Assay: NCI tumour cell line growth inhibition, 48 h
PROPERTY_MEASURED: TGI

Missing value: TGI, HT29 colon, entry "O=C1c2ccccc2-c2c1c1c(O)cccc1n2-c1ccccc1" . Fill in? > 100 µM

Enter reported TGI observed with HT29 colon for "CSCCOC(=O)C(=[N+]=[N-])c1ccc([N+](=O)[O-])cc1" > 100 µM

Record lookup: for HT29 colon, what TGI belongs to "COc1cc(S(=O)(=O)Nc2nc(-c3ccc(N4C(=O)/C(=C/c5ccccc5[N+](=O)[O-])N=C4c4ccccc4)cc3)cs2)ccc1Cl" ? > 100 µM

Record lookup: for HT29 colon, what TGI belongs to "O=C(/C(=C/c1ccc([N+](=O)[O-])cc1)SCc1ccc(F)cc1)c1ccc(Cl)cc1" ? 6.2 µM

Field: TGI (HT29 colon). Entry: CC(=O)NNC(=O)C1CCCCN1 (stereo not given) > 100 µM

Give TGI (HT29 colon) of the following molecule: COc1ccc(/C(CC2OC(=O)c3ccccc32)=N\NC(=O)C[N+](C)(C)C)cc1 (stereo not given) 40.9 µM

What TGI appears in the records for this molecule with HT29 colon? COc1ccc(OC)c(CC(C)N)c1 (stereo not given) > 100 µM

What measured TGI is associated with CCOC(=O)C(C)(C)C(O)C(C)C (stereo not given) on HT29 colon? > 100 µM

Request: TGI, test system HT29 colon, entry "CCCC(=O)O.CCCC(=O)O.CCCC(=O)O.CCCC(=O)O.[Rh].[Rh]" 0.126 µM

Request: TGI, test system HT29 colon, entry "O=C(/C=C/c1ccccc1)N1CCCCC1" > 100 µM

Enter reported TGI observed with HT29 colon for "CN(C)/C=N/NC(=O)/C(C#N)=C/N(C)C" > 100 µM

// fetch HT29 colon TGI for "COc1ccc(OC)c(-c2cc(=O)c3c(OC)c(OC)c(OC)c(OC)c3o2)c1" > 100 µM

Could you share what TGI was measured for "C[C@H](CCCNCCCNCCCN)[C@H]1CC[C@H]2[C@@H]3[C@H](OCCCN)C[C@H]4C[C@H](OCCCN)CC[C@]4(C)[C@H]3C[C@H](OCCCN)[C@]12C" , tested on HT29 colon? 13.8 µM

Test system HT29 colon; read-out TGI; what value for C=C(C)[C@@H]1CC[C@]2(CO)CC[C@]3(C)[C@H](CC[C@@H]4[C@@]5(C)CCC(NCCc6ccc(O)cc6)C(C)(C)[C@@H]5CC[C@]43C)[C@@H]12 (stereo not given in full) ? 2.49 µM

Find TGI (HT29 colon) for the entry "O=C1C2CN(Cc3ccccc3)CC1CN(CC1CC1)C2" > 100 µM

Could you share what TGI was measured for "C=CCNS(=O)(=O)c1ncnc2nc[nH]c12" , tested on HT29 colon? > 100 µM

Field: TGI (HT29 colon). Entry: "CC(=O)O[C@H]1C(=O)[C@@]2(C)[C@H]([C@H](OC(=O)c3ccccc3)[C@]3(O)C[C@H](OC(=O)[C@H](O)[C@@H](NC(=O)C(C)(C)C)c4ccccc4)C(C)=C1C3(C)C)[C@]1(OC(C)=O)CO[C@@H]1C[C@@H]2O" > 10 µM

Request body: readout TGI, system HT29 colon, query "Cc1nc(C(N)=S)sc1C(=O)CC(=O)C(=O)Nc1nc2ccccc2[nH]1" . Return the value. > 100 µM

Short answer please: TGI, HT29 colon, entry "CCC[CH2][Sn]1([CH2]CCC)[O]C(=O)c2ccc(C)cc2[O]1" 2.97 µM

Form field: TGI recorded for "Br/C(=N\Nc1nn[nH]n1)c1ccncc1" with HT29 colon (enter value) > 100 µM

###

Test system: HL-60(TB) leukemia
Assay: NCI tumour cell line growth inhibition, 48 h
PROPERTY_MEASURED: TGI

Looking for the measured TGI of "COc1ccc(CNc2nc3cc(N)cc(N)c3nc2-c2ccccc2)cc1" , can you help? 51.3 µM

Endpoint output: TGI of "CCOC(=O)c1ccc(Nc2nc3ccccc3nc2C(=O)OCC)cc1" . Value? > 100 µM

Give the measured TGI of CCCCCCCCCCCCOC1C(C(CC(=O)N2CCN(c3cccc(C(F)(F)F)c3)CC2)NS(=O)(=O)c2cc(Cl)cc(Cl)c2)OC2OC(C)(C)OC21 (stereo not given) . > 100 µM

Which TGI reading was recorded for the molecule COc1ccc(/C(CC2OC(=O)c3ccccc32)=N\NC(=O)C[N+](C)(C)C)cc1 (stereo not given) ? > 100 µM

Value lookup for TGI; key = COC(=O)[C@H](Cc1ccc(O)cc1)NC(=O)[C@@H](OC)[C@@H]1Cc2cc3cc(OC4CC(OC5CC(O)C(O)C(C)O5)C(O)C(C)O4)c(C)c(O)c3c(O)c2C(=O)[C@H]1OC1CC(OC2CC(OC3CC(C)(O)C(O)C(C)O3)C(O)C(C)O2)C(O)C(C)O1 (stereo not given in full) > 25 µM

###

Test system: NCI-H226 lung
Test: NCI tumour cell line growth inhibition, 48 h
PROPERTY_MEASURED: TGI

Dear colleague, I am looking for the recorded TGI of the following compound: "COc1cc(S(=O)(=O)Nc2nc(-c3ccc(N4C(=O)/C(=C/c5ccccc5[N+](=O)[O-])N=C4c4ccccc4)cc3)cs2)ccc1Cl" > 100 µM

Would you mind telling me what TGI value was observed for "COCn1c(C)c(C)c2c(=O)oc(N(C)C)nc21" ? > 100 µM

Query (compound): CCCCCCCCCCCCCCCCOP(=O)(O)OP(=O)(O)OCC1OC(n2ccc(N)nc2=O)C(O)C1O (centres undefined) ; field requested: TGI > 100 µM

Would you mind telling me what TGI value was observed for "C1=NCCNCCNCCN=Cc2ccccc2OCc2cccc(n2)COc2ccccc21" ? > 100 µM

I would be grateful if you could share the reported TGI for "Nc1c(C(=O)c2ccc(CCCN3CCOCC3)cc2)cnn1-c1ccc(F)cc1" . > 25 µM

// TGI lookup, key: O=C1C(Cl)C(c2cc3cc(Br)ccc3nc2Cl)N1c1ccc(Cl)cc1 (centres undefined) 12.3 µM

Consider the compound shown here: "Cl/C(=C\C=Nc1ccc(I)cc1)c1ccc2ccccc2c1" What is its recorded TGI? > 59.7 µM

Need TGI of "COC(=O)/C=C(/OC)[C@H](C)[C@H](/C=C/c1csc(-c2csc(C(C)C)n2)n1)OC" , thanks. > 100 µM

Would you kindly share the measured TGI for "CN(C)/C=N/NC(=O)/C(C#N)=C/N(C)C" ? > 100 µM
